System: Bacillus cereus
Attribute: MIC
Number in µg/mL, nothing else.

Example entries begin here.
Molecule	MIC / µg/mL
O=C(Nc1nc2ccccc2s1)c1cc(N=Nc2nccs2)ccc1O	80
O=C(Nc1nccs1)c1cc(N=Nc2nccs2)ccc1O	100
O=C(O)c1cc(N=Nc2nccs2)ccc1O	20

Please turn your attention to the following entry.
Report its MIC with Bacillus cereus as the test system: CC[C@H]1OC(=O)[C@H](C)[C@@H](O[C@H]2C[C@@](C)(OC)[C@@H](O)[C@H](C)O2)[C@H](C)[C@@H](O[C@@H]2O[C@H](C)C[C@H](N(C)C)[C@H]2O)[C@](C)(O)C[C@@H](C)CN(C)[C@H](C)[C@@H](O)[C@]1(C)O [azithromycin, reference compound] 80
